Measured composite z-score, listed per entry.
Test system: Fibrinogen (Alexa647-labelled)
Experiment: fibrinogen binders on compound microarrays, profiling panel, artefact control for SMM control-protein annotation, biochemical, small-molecule microarray, 635/667 nm fluorescence (AID 1131);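 also: z-score merges 667 nm fluorescence with per-spot signal-to-noise over triplicate slides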
Settings: fibrinogen-A647 binding fluorescence, higher = more signal
// no unit, no text: just the number

Consider the worked cases shown below.
1) CCCCC(O)C1C=CC2C(=O)N(C)C(=O)C2N1Nc1ccccc1 (centres undefined)	0.416
2) COC(=O)C1=CC(CCCO)=CC(C2CC2)N(Cc2cccc(OC(F)(F)F)c2)C=C1C(=O)OC (centres undefined)	0.884

Request: # query: composite z-score of entry CCCC[C@H]1OB(O)C[C@H]2C1=C(COC)C[C@H]1C(=O)C=CC(=O)[C@H]12
Response: 0.287

Request: Query: composite z-score; subject: CN(C)CCCC[C@@H]1NC(=O)[C@@H]2C[C@H](C(=O)NCCCCCCNC(=O)CS)[C@H](c3cccc(OCCO)c3)N2C1=O
Response: -1.07

Request: Quick one: composite z-score for C#CCN=C(N)N ?
Response: 0.802

Request: Would you mind telling me what composite z-score value was observed for CCOC(=O)C[C@H]1[C@H](OC(=O)c2ccc(-c3ccccc3)cc2)[C@@H](NC(=O)c2ccc3ccccc3c2)c2cc(OCCCO)ccc2N1C(=O)c1ccccc1 ?
Response: 0.118

Request: Dear colleague, I am looking for the recorded composite z-score of the following molecule: CN(C)CCCC[C@@H]1NC(=O)[C@H]2C[C@@H](C(=O)O)[C@@H](c3cccc(OCCO)c3)N2C1=O
Response: 0.564

Request: What composite z-score value was documented for this molecule, CC(C)(C)N1CC=CC23O[C@@H]4/C=C\CCCOC(=O)C4[C@H]2C(=O)N(CCCCCCO)[C@@H]3C1=O (some centres undefined) ?
Response: -1.01

Request: Need composite z-score, item CCCCC(O)C1C=CC2C(=O)NC(=O)C2N1Nc1ccc(Cl)cc1Cl (centres undefined)
Response: -0.0628
